// provenance: ChEMBL document CHEMBL1157539

- Tested on: Plasmodium falciparum
- Assay: GSK_TCMDC: Inhibition of Plasmodium falciparum Dd2 in whole red blood cells, using parasite LDH activity as an index of growth. Test compounds present at 2uM
- Type: functional
Quantity Measured: Inhibition (%)

COc1ccc2[nH]cc(C3CCN(CCC4CCN(C(=O)/C=C/c5ccc(Cl)c(Cl)c5)CC4)CC3)c2c1 ... 56
CN1CCC(c2cc3c(cc2Br)CCN3C(=O)Nc2ccc(-c3ccncc3)c(Cl)c2)CC1 ... 0
Cc1cc(N2C(N)=NC(N)=NC2(C)C)ccc1Cl.Cl ... 0
CN(C)Cc1ccc2cc(NC(=O)c3ccc(-c4ccc(Cl)cc4)cc3)ccc2c1 ... 22
Br.Cn1c(=N)n(CC(=O)OCc2ccc(OCc3ccccc3)cc2)c2ccccc21 ... 74
Cc1cc(N[C@@H](CC(C)C)C(=O)NCCOc2ccccc2)nc(NCCOc2ccccc2)n1.O=C(O)C(F)(F)F ... 6
CCNc1cc(C(=O)N[C@@H](Cc2ccc(Cl)cc2)[C@H](O)CNC2CCCCC2)cc(N2CCCCS2(=O)=O)c1.Cl ... 99
CCC(C)c1ccc(NC(=O)Nc2ccc(Cn3ncc(N4CCCNCC4)c(Cl)c3=O)cc2)cc1.O=C(O)C(F)(F)F (stereo not drawn) ... 31
CC(C)(CNCc1ccc(F)c(F)c1)c1nc(-c2ccc(Cl)c(O)c2)c(-c2ccncc2)[nH]1.Cl ... 89
O=C(Nc1cccc(Cl)c1)N(CCCn1ccnc1)Cc1csc(-c2ccc(CNCc3ccccc3)cc2)n1.O=C(O)C(F)(F)F ... 45
O=C(/C=C/c1ccc(Cl)c(Cl)c1)N1CCC(CCN2CCc3[nH]c4ccccc4c3C2)CC1.O=C(O)C(F)(F)F ... 0
COCCn1c(SC(C)C(=O)Nc2cc(C(F)(F)F)ccc2Cl)nc2ccccc2c1=O (stereo not drawn) ... 95
C[C@H](NC(=O)c1c(CN2CCC(N3CCCCC3=O)CC2)c(-c2cccs2)nc2ccccc12)C1CCCCC1 ... 73
COc1ccc(Cn2c(SCc3ccc(C)cc3)nc3cc(OC)c(OC)cc3c2=N)cc1Cl ... 7
Cl.c1ccc2cc(CNCCCN3CCN(CCCNCc4ccc5ccccc5c4)CC3)ccc2c1 ... 65
CCC[C@@H]([C@@H](CC1CCCCC1)C(=O)NC(C(=O)Nc1nccs1)C(CC)c1ccccc1)N(O)C=O (stereo partly drawn) ... 19
COc1cc(-c2cc(-c3ccc(S(C)(=O)=O)cc3)cnc2N)ccc1O ... 97
Cc1cc(N2CCC(NS(=O)(=O)c3ccccc3)CC2)nc(Nc2cccc(C#N)c2)n1.O=C(O)C(F)(F)F ... 29

----------
- Test system: Plasmodium falciparum
- Assay: GSK_TCMDC: Inhibition of Plasmodium falciparum 3D7 in whole red blood cells, using parasite LDH activity as an index of growth. Test compounds present at 2uM
- Assay type: functional
Would you please tag the item Met when its Inhibition is 90% or above, and Not met when it is below?

CCn1cc(CN2CCCC(C(=O)Nc3ccc(-c4nc5ccccc5[nH]4)cc3)C2)cn1 (centres undefined) ... Met
COc1cc(OC)cc(-c2nn(-c3ccc([N+](=O)[O-])cc3Cl)c(=S)n2CC2CCCO2)c1 (centres undefined) ... Met
Br.Oc1ccc(CCNCCCCCCNCCc2ccc(Br)cc2)cc1O ... Met
CCCCC(=O)N(CCOC)Cc1ccc(-c2ccc(CNCCC)cn2)cc1.O=C(O)C(F)(F)F ... Met
Cl.N#Cc1ccc2c(c1)CN(CCC1CCC(NC(=O)c3cc4ccccc4cc3N)CC1)CC2 (centres undefined) ... Not met
CCOC(=O)c1nc2ccc(SC3CCCCC3)cn2c1Br ... Not met
Cl.NCCCCc1c(-c2ccc(Cl)c(Cl)c2)[nH]c2ccc(Cl)cc12 ... Met

----------
Item-by-item account of Inhibition
- Tested on: Plasmodium falciparum
- Assay: GSK_TCMDC: Inhibition of Plasmodium falciparum Dd2 in whole red blood cells, using parasite LDH activity as an index of growth. Test compounds present at 2uM
- Assay type: functional
Quantity Measured: Inhibition

Cc1cccn2c(=O)c3cc(C(=O)NC(C)c4ccccc4)c(=N)n(CCN4CCOCC4)c3nc12 (centres undefined) ... 5%
COc1ccc2cc(-c3nc(-c4c(Cl)cccc4Cl)[nH]c3-c3ccnc(NCCC4CCCN4C)c3)ccc2c1.O=C(O)C(F)(F)F (centres undefined) ... 82%
CCc1c(CCNCCCCCNCCc2ccc(OC)c(OC)c2CC)ccc(OC)c1OC.Cl ... 1%
Nc1ncc(-c2ccsc2)c2ccc(-c3ccc4cn[nH]c4c3)cc12 ... 41%
CC(=O)NC(c1cccs1)c1cc(Cl)c2cccnc2c1O (centres undefined) ... 93%
Cc1cc(C2CCN(CCCCNC(=O)c3ccc(-c4ccc(C(F)(F)F)cc4)cc3)CC2)c(C)cc1OCC(N)=O ... 44%
CC(C)N1CCN(C(=O)c2ccc(CNCCCN3CCN(c4cccc(Cl)c4Cl)CC3)o2)CC1.Cl ... 36%
Cc1noc(C)c1-c1cccc(CNCc2cccc(-c3cccc(-c4nc5ccccc5[nH]4)c3)c2)c1.O=C(O)C(F)(F)F ... 54%
Oc1ccc2nc(NCCCc3ccccc3)nc(NCCc3ccccc3)c2c1 ... 88%
Cc1cc(NCC(c2ccccc2)c2ccccc2)nc(NCc2ccc(C(F)(F)F)cc2)n1 ... 79%
O=C(O)C(F)(F)F.O=S(=O)(NCCN1CCCC1)c1cccc(-c2cccc(CNCc3ccsc3)c2)c1 ... 55%
Cc1cc(N(C)C2CCN(C)C2)nc(Nc2ccccc2Cl)n1 (centres undefined) ... 84%
COCCNC(=O)c1ccc(OC2CCN(Cc3ccc(F)c(F)c3)CC2)c(Cl)c1 ... 73%
Cc1ccc(/C=C/C(=O)NCCCCCN2CCN(C(=O)Nc3ccc(Cl)c(C(F)(F)F)c3)CC2)cc1 ... 0%
CCN(CC)C(=O)C1CCCN(C(=O)Nc2cc(C(F)(F)F)cc(C(F)(F)F)c2)C1 (centres undefined) ... 98%
O=C(O)C(F)(F)F.O=C1COC2(CN1C1CCN(Cc3ccc(O)cc3Cl)C1)c1ccccc1-c1ccccc12 (centres undefined) ... 70%
CN(C)CCN(C)Cc1ccc(-c2ccc(NC(=O)c3cccc(Cl)c3)cc2)cc1.O=C(O)C(F)(F)F ... 54%
Br.CCCc1cccc(C)c1OCCCON1C(=N)N=C(N)NC1(C)C ... 96%
COCCCNC(=O)C1CCN(C(c2ccc(Cl)cc2)c2ccc(Cl)cc2)CC1 ... 63%

----------
- Tested on: HepG2
- Assay: GSK_TCMDC: Percent inhibition of human HepG2 cell line. Test compounds present at 10uM.
- Assay type: functional
Response field label: string, one of satisfied (Inhibition strictly below 40%) or not satisfied.

NCC1CCCN1Cc1ccc(-c2ccc(-c3nc4ccccc4[nH]3)s2)cc1.O=C(O)C(F)(F)F (centres undefined) ... satisfied
CN(C)CCOc1ccc(-c2cc(-c3ccc(Cl)c(O)c3)c(-c3ccncc3)[nH]2)cc1.Cl ... not satisfied
Cc1ccccc1C1CCN(C2CCC(NC(=O)c3cc(-c4ccccc4)oc3C)CC2)CC1 (centres undefined) ... not satisfied
COc1cccc(Cc2c(C)nc3nc(N)nc(N)c3c2C)c1.Cl ... not satisfied
CCCN(CCC)C(=O)c1cc(-c2cccc(C)c2)nc2ccccc12 ... satisfied
Cc1cc(-c2cccc(CNC3CCN(C)CC3)c2)ccc1S(=O)(=O)NCCN1CCCC1.O=C(O)C(F)(F)F ... satisfied
CC(C)CNCc1ccc(-c2ccccc2CN(C(=O)NCCc2ccccc2)C2CCN(Cc3ccccc3)CC2)cc1.O=C(O)C(F)(F)F ... not satisfied
FC(F)(F)c1ccc(NC(=S)N2CCC(CCN3CCC(c4c[nH]c5ccccc45)CC3)CC2)cc1 ... not satisfied
CCN(CC)CCN(CCCc1ccc(-c2ccc(C(F)(F)F)cc2)cc1)C(=O)Cn1c(CCc2cccc(F)c2F)nc(=O)c2c1CCC2.O=C(O)C(O)C(O)C(=O)O ... satisfied
CC(C)N1CCC(N(Cc2ccc(-c3ccc(C(F)(F)F)cc3)cc2)C(=O)Cn2c(SCc3cccc(F)c3F)cc(=O)c3c2CCC3)CC1.O=C(O)C(O)C(O)C(=O)O ... not satisfied
N#Cc1ccc(N2CCN(Cc3ccc(-c4cccc(-c5nc6ccccc6[nH]5)c4)cc3)CC2)nc1.O=C(O)C(F)(F)F ... satisfied
C=C1N(C)c2cc([N+](=O)[O-])c(N)cc2C1(C)C ... satisfied
Cc1cnc(N2CCN(CCCN3CCCC3)CC2)nc1Oc1ccc(-n2ccnc2)cc1.O=C(O)C(F)(F)F ... satisfied
O=C(/C=C/c1ccc(Cl)c(Cl)c1)NCCCCCN1CCC(NC(=O)Nc2cc(F)cc(F)c2)CC1 ... not satisfied
CCCNC(=O)CN1CN(c2ccccc2)C2(CCN(C(=O)c3ccc(C(C)(C)C)cc3)CC2)C1=O ... satisfied
O=C(O)C(F)(F)F.O=S(=O)(/C=C/c1ccccc1)N(Cc1ccc(-c2ccc(CNCCc3ccccc3)cc2)cc1)CC1CCCCN1 (centres undefined) ... not satisfied
CC(=O)Nc1cccc(C(=O)Nc2cccc(-c3ccc(-c4nc5cc(C(F)(F)F)ccc5[nH]4)s3)c2)c1 ... not satisfied
CS(=O)(=O)NCCCNCc1ccc(-c2cccc(-c3nc4cc(F)ccc4[nH]3)c2)cc1.O=C(O)C(F)(F)F ... satisfied
CC(C)(C)c1cc(C(=O)Nc2ccc(C(=N)N)cc2)c(O)c(C(C)(C)C)c1.O=C(O)C(F)(F)F ... satisfied
CC(C)(C)c1cc(NC2CC2)nc(-c2ccccn2)n1 ... satisfied
CCc1ccc(N2C(=O)C3C(Cc4ccc(OC(C)(C)C)cc4)NC4(C(=O)N(Cc5ccccc5)c5ccc(F)cc54)C3C2=O)cc1 (centres undefined) ... satisfied
Cl.Cn1c(=N)n(CC(=O)N2CCc3ccc(Cl)cc3C2Cc2ccc(Cl)c(Cl)c2)c2ccccc21 (centres undefined) ... not satisfied
CC(CN)OCn1cnc2c(N)ncnc21.Cl (centres undefined) ... satisfied
Cc1cccc(-c2ccc(CNC3CCN(CC4Cn5c(=O)ccc6ccc(F)c4c65)CC3)cn2)c1.O=C(O)C(F)(F)F (centres undefined) ... satisfied
Clc1ccc2c(NN=Cc3ccco3)ccnc2c1 ... satisfied
CCOC(=O)c1cc(C(=O)NCCCCN2CCC(c3cn(C)c4ccccc34)CC2)ccc1-c1ccc(C(F)(F)F)cc1 ... satisfied
Br.CC1(C)NC(N)=NC(=N)N1OCCCOc1c(Cl)cc(Cl)cc1Cl ... not satisfied
CCC[C@@H]([C@@H](CC(C)C)C(=O)N[C@@H](CCC/N=C(/N)NS(C)(=O)=O)C(=O)Nc1nccs1)N(O)C=O ... satisfied
OC(CNCc1cccc(Oc2ccc(Cl)cc2)c1)c1cc(C(F)(F)F)cc(C(F)(F)F)c1 (centres undefined) ... satisfied
CN(C)C(CNC(=O)c1cc(-c2ccncc2)c(-c2ccc(NC(=O)Nc3cccc(Cl)c3)cc2)o1)c1ccccc1.O=C(O)C(F)(F)F (centres undefined) ... satisfied
CC(=O)N(C)c1cccc(C(=O)Nc2cccc(-c3cccc(-c4nc5cc(C(F)(F)F)ccc5[nH]4)c3)c2)c1 ... not satisfied
CN1CCCN(Cc2cccc(-c3ccc(NC(=O)c4cccc(C#N)c4)cc3)c2)CC1.O=C(O)C(F)(F)F ... satisfied
O=C(/C=C/c1ccc(Cl)c(Cl)c1)NCCCCCN1CCC(NC(=O)Nc2ccc(Oc3ccccc3)cc2)C1 (centres undefined) ... satisfied
CCOc1c(OC)ccc2c1CCN(CCN1CCC(CNC(=O)c3ccc(-c4ccc(C#N)cc4)cc3)CC1)C2 ... not satisfied
